Target: 5-HT transporter (Rattus norvegicus, UniProt P31652)
Construct: from tissue; host or cells: rat brain (medulla and pons), synaptosomes, P2 fraction
Sequence (P31652 whole entry): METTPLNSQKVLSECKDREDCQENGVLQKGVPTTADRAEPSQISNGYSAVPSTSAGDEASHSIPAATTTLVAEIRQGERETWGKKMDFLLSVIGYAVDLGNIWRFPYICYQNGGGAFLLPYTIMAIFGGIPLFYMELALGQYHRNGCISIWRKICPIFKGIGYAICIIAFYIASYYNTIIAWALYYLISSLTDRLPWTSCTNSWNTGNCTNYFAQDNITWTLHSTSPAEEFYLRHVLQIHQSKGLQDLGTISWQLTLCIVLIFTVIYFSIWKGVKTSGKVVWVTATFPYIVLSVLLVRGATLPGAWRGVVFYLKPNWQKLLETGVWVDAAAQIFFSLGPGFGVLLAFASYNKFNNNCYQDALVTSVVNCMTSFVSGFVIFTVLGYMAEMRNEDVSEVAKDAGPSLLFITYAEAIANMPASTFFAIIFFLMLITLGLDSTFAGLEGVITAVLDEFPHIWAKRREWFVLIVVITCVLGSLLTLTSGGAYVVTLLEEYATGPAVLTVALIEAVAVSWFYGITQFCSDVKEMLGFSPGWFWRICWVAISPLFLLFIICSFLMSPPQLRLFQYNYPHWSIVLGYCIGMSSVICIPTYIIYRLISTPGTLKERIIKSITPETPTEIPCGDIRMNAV
Assay: 5-HT uptake inhibition, synaptosomes from rat brain (medulla and pons)
Type: biochemical
The entries below come with measured inhibition at 10 µM values attached.
ENDPOINT_LABEL: inhibition at 10 µM (%)

{"COMPOUND": "Cc1ccc(S(=O)(=O)N2CCc3onc(C(=O)N4CCN(CCC5CCCCC5)CC4)c3C2)cc1 [Example 82]", "ENDPOINT_LABEL": "inhibition at 10 µM", "QUANTITATIVE_RESULT": 62}
{"COMPOUND": "COCCNC(=O)c1noc2c1CN(C(=O)c1ccc(C(F)(F)F)c(F)c1)CC2 [Example 153]", "ENDPOINT_LABEL": "inhibition at 10 µM", "QUANTITATIVE_RESULT": 37}
{"COMPOUND": "O=C(NCCN1CCCC1)c1noc2c1CN(C(=O)CC1CCCC1)CC2 [Example 71]", "ENDPOINT_LABEL": "inhibition at 10 µM", "QUANTITATIVE_RESULT": 69}
{"COMPOUND": "COc1ccc(C(C)NC(=O)c2noc3c2CN(S(=O)(=O)c2ccc(OC)cc2)CC3)cc1 (stereo not shown) [Example 84]", "ENDPOINT_LABEL": "inhibition at 10 µM", "QUANTITATIVE_RESULT": 69}
{"COMPOUND": "CCOC(=O)CCNC(=O)c1noc2c1CN(C(=S)NCC1CCCCC1)CC2 [Example 134]", "ENDPOINT_LABEL": "inhibition at 10 µM", "QUANTITATIVE_RESULT": 61}
{"COMPOUND": "COc1ccc(NC(=O)N2CCc3onc(C(=O)NCc4ccccc4)c3C2)cc1 [Example 151]", "ENDPOINT_LABEL": "inhibition at 10 µM", "QUANTITATIVE_RESULT": 36}
{"COMPOUND": "COc1ccc(S(=O)(=O)N2CCc3onc(C(=O)Nc4ccc(C)cc4)c3C2)cc1 [Example 53]", "ENDPOINT_LABEL": "inhibition at 10 µM", "QUANTITATIVE_RESULT": 89}
{"COMPOUND": "O=C(c1noc2c1CN(S(=O)(=O)c1ccc(F)cc1)CC2)N1CC=C(c2ccc(F)cc2)CC1 [Example 42]", "ENDPOINT_LABEL": "inhibition at 10 µM", "QUANTITATIVE_RESULT": 69}
{"COMPOUND": "CN(C)CCNC(=O)c1noc2c1CN(C(=O)c1cccc(SC(F)F)c1)CC2 [Example 93]", "ENDPOINT_LABEL": "inhibition at 10 µM", "QUANTITATIVE_RESULT": 88}
{"COMPOUND": "Cl.O=C(c1noc2c1CN(S(=O)(=O)c1cccc3ccccc13)CC2)N1CCC(CCN2CCCC2)CC1 [Example 149, hydrochloride]", "ENDPOINT_LABEL": "inhibition at 10 µM", "QUANTITATIVE_RESULT": 68}
{"COMPOUND": "COc1ccc(NC(=O)N2CCc3onc(C(=O)NCc4ccc(S(N)(=O)=O)cc4)c3C2)cc1 [Example 154]", "ENDPOINT_LABEL": "inhibition at 10 µM", "QUANTITATIVE_RESULT": -8}
{"COMPOUND": "CN(C)CCNC(=O)c1noc2c1CN(C(=O)c1cc(C(C)(C)C)nn1C)CC2 [Example 41]", "ENDPOINT_LABEL": "inhibition at 10 µM", "QUANTITATIVE_RESULT": 76}
{"COMPOUND": "O=C(NCCN1CCCC1)c1noc2c1CN(C(=O)COCc1ccccc1)CC2 [Example 64]", "ENDPOINT_LABEL": "inhibition at 10 µM", "QUANTITATIVE_RESULT": 77}
{"COMPOUND": "O=C(NCCc1ccc(Cl)c(Cl)c1)c1noc2c1CN(S(=O)(=O)c1ccccc1)CC2 [Example 92]", "ENDPOINT_LABEL": "inhibition at 10 µM", "QUANTITATIVE_RESULT": 61}
{"COMPOUND": "O=C(c1noc2c1CN(S(=O)(=O)c1ccc(Cl)c(Cl)c1)CC2)N1CCN(c2nccs2)CC1 [Example 140]", "ENDPOINT_LABEL": "inhibition at 10 µM", "QUANTITATIVE_RESULT": 47}
{"COMPOUND": "O=C(NC1CCN(Cc2ccccc2)C1)c1noc2c1CN(S(=O)(=O)c1ccc(OC(F)(F)F)cc1)CC2 (stereo not shown) [Example 117]", "ENDPOINT_LABEL": "inhibition at 10 µM", "QUANTITATIVE_RESULT": 68}

###

Target: 5-HT transporter (Rattus norvegicus)
Construct: from tissue; host or cells: rat brain (medulla and pons), synaptosomes, P2 fraction
Assay: 5-HT uptake inhibition, synaptosomes from rat brain (medulla and pons)
Type: biochemical
The entries below come with measured 5-HT uptake (rat), 10 μM, % inhibition values attached.

{"MOLECULE": "O=C(NCc1ccccc1)c1noc2c1CN(C(=O)Nc1ccccc1)CC2 [Example 17]", "TEST_SYSTEM": "5-HT transporter (Rattus norvegicus)", "5-HT uptake (rat), 10 μM, % inhibition (%)": 64}
{"MOLECULE": "O=C(NCc1ccccc1)c1noc2c1CN(C(=O)NCCc1ccccc1)CC2 [Example 10]", "TEST_SYSTEM": "5-HT transporter (Rattus norvegicus)", "5-HT uptake (rat), 10 μM, % inhibition (%)": 51}
{"MOLECULE": "Cc1ccc(NC(=O)N2CCc3onc(C(=O)NCc4ccc(F)cc4)c3C2)cc1[N+](=O)[O-] [Example 14]", "TEST_SYSTEM": "5-HT transporter (Rattus norvegicus)", "5-HT uptake (rat), 10 μM, % inhibition (%)": 53}
{"MOLECULE": "CCOC(=O)CCNC(=O)c1noc2c1CN(C(=O)Nc1cc(F)ccc1F)CC2 [Example 6]", "TEST_SYSTEM": "5-HT transporter (Rattus norvegicus)", "5-HT uptake (rat), 10 μM, % inhibition (%)": 43}
{"MOLECULE": "CCOc1ccc(NC(=O)N2CCc3onc(C(=O)Nc4ccccc4)c3C2)cc1 [Example 13]", "TEST_SYSTEM": "5-HT transporter (Rattus norvegicus)", "5-HT uptake (rat), 10 μM, % inhibition (%)": 48}
{"MOLECULE": "N#Cc1cccc(NC(=O)N2CCc3onc(C(=O)NCc4cccs4)c3C2)c1 [Example 12]", "TEST_SYSTEM": "5-HT transporter (Rattus norvegicus)", "5-HT uptake (rat), 10 μM, % inhibition (%)": 51}
{"MOLECULE": "O=C(NC1CCCC1)c1noc2c1CN(C(=O)NCc1ccc(F)cc1)CC2 [Example 2]", "TEST_SYSTEM": "5-HT transporter (Rattus norvegicus)", "5-HT uptake (rat), 10 μM, % inhibition (%)": 41}
{"MOLECULE": "COCCNC(=O)c1noc2c1CN(C(=O)Nc1ccc(C)c([N+](=O)[O-])c1)CC2 [Example 5]", "TEST_SYSTEM": "5-HT transporter (Rattus norvegicus)", "5-HT uptake (rat), 10 μM, % inhibition (%)": 47}
{"MOLECULE": "CCSCCNC(=O)c1noc2c1CN(C(=O)Nc1cccc(OC)c1)CC2 [Example 11]", "TEST_SYSTEM": "5-HT transporter (Rattus norvegicus)", "5-HT uptake (rat), 10 μM, % inhibition (%)": 54}
{"MOLECULE": "O=C(c1noc2c1CN(S(=O)(=O)c1ccc(F)cc1)CC2)N1CCN(c2ncnc3sccc23)CC1 [Example 34]", "TEST_SYSTEM": "5-HT transporter (Rattus norvegicus)", "5-HT uptake (rat), 10 μM, % inhibition (%)": 74}
{"MOLECULE": "Cc1ccc(NC(=O)N2CCc3onc(C(=O)NCc4cccs4)c3C2)cc1[N+](=O)[O-] [Example 9]", "TEST_SYSTEM": "5-HT transporter (Rattus norvegicus)", "5-HT uptake (rat), 10 μM, % inhibition (%)": 45}
{"MOLECULE": "CCOC(=O)c1cccc(NC(=O)N2CCc3onc(C(=O)NCc4ccc(C)o4)c3C2)c1 [Example 23]", "TEST_SYSTEM": "5-HT transporter (Rattus norvegicus)", "5-HT uptake (rat), 10 μM, % inhibition (%)": 52}
{"MOLECULE": "COCCNC(=O)c1noc2c1CN(C(=O)Nc1cccc(OC)c1)CC2 [Example 1]", "TEST_SYSTEM": "5-HT transporter (Rattus norvegicus)", "5-HT uptake (rat), 10 μM, % inhibition (%)": 47}
{"MOLECULE": "CC(=O)c1cccc(NC(=O)N2CCc3onc(C(=O)NCc4ccc(C)o4)c3C2)c1 [Example 15]", "TEST_SYSTEM": "5-HT transporter (Rattus norvegicus)", "5-HT uptake (rat), 10 μM, % inhibition (%)": 58}
{"MOLECULE": "Cc1ccc(CNC(=O)c2noc3c2CN(C(=S)Nc2c(F)c(F)c(F)c(F)c2F)CC3)o1 [Example 133]", "TEST_SYSTEM": "5-HT transporter (Rattus norvegicus)", "5-HT uptake (rat), 10 μM, % inhibition (%)": 63}
{"MOLECULE": "CCOc1ccc(NC(=O)N2CCc3onc(C(=O)NCc4ccc(F)cc4)c3C2)cc1 [Example 21]", "TEST_SYSTEM": "5-HT transporter (Rattus norvegicus)", "5-HT uptake (rat), 10 μM, % inhibition (%)": 56}
{"MOLECULE": "COc1ccc(Cl)cc1NC(=O)N1CCc2onc(C(=O)NCCc3ccccc3)c2C1 [Example 22]", "TEST_SYSTEM": "5-HT transporter (Rattus norvegicus)", "5-HT uptake (rat), 10 μM, % inhibition (%)": 60}
{"MOLECULE": "CC(NC(=O)N1CCc2onc(C(=O)NCCc3ccccc3)c2C1)c1cccc2ccccc12 (stereo not drawn) [Example 18]", "TEST_SYSTEM": "5-HT transporter (Rattus norvegicus)", "5-HT uptake (rat), 10 μM, % inhibition (%)": 42}
